biological target: HLA-A2 (A*0201) (Homo sapiens, UniProt P04439, D140Y/D185E/D98H/E176V/E277Q/G131W/G231S/I119V/I121R/I166T/I218V/L300P/L318F/N151K/N90K/P208A/P217A/Q86G/Q94H/R138H/R169H/T345S); assay: iTopia stability; details: Table 1
propertyName: Binding after 8 h incubation w/o free peptide, % pos control (% pos control)
One number for each entry, in % pos control.

Sample records with Binding after 8 h incubation w/o free peptide, % pos control:
1. KLFGSLAFL
114.9
2. ILAKFLHWLV [T.540(10).V10]
88.8
3. FLHWLMSVYV [T.544]
74.4

Return reported Binding after 8 h incubation w/o free peptide, % pos control values for all items listed beneath this line.
1. FLDLQVNSL [T.986]
2. ALCRWGLLV [H.5.V9]
3. ALVGIMIGV [C.687.L2]
4. AVVGILLVV [H.657]
5. YLSGANLNV [C.605.V9]
6. VVLGVVFGV [H.665.V9]

Reply text:
[54.5, 33.9, 76.2, 12.0, 78.5, 72.7]

Return reported Binding after 8 h incubation w/o free peptide, % pos control values for all items listed beneath this line.
1. LLDTRTLEV [T.934]
2. ALVGILLVVV [H.657(10).L2]
3. RLTVTTITV [C.310.L2]
4. FLVDDFLLV [T.865.F1]

Reply text:
66.3
17.8
64.4
76.2

----------
target: HLA-A2 (A*0201) (Homo sapiens, UniProt P04439, D140Y/D185E/D98H/E176V/E277Q/G131W/G231S/I119V/I121R/I166T/I218V/L300P/L318F/N151K/N90K/P208A/P217A/Q86G/Q94H/R138H/R169H/T345S); assay: iTopia initial binding assay; conditions: Table 1
propertyName: Initial binding, % pos control (% pos control)
Give bare numbers, in % pos control.

Sample records with Initial binding, % pos control:
1. ALVGIMIGV [C.687.L2]
73.7
2. AVVGILLVV [H.657]
20.6
3. FLHWLMSVYV [T.544]
48.0

Return reported Initial binding, % pos control values for all items listed beneath this line.
1. FLVDDFLLV [T.865.F1]
2. RLTVTTITV [C.310.L2]
3. YLSGANLNV [C.605.V9]
4. ILAKFLHWLV [T.540(10).V10]
5. ALVGILLVVV [H.657(10).L2]

Reply text:
1: 88.4; 2: 61.2; 3: 73.2; 4: 99.8; 5: 13.8

----------
target: HLA-A2 (A*0201) (Homo sapiens, UniProt P04439, D140Y/D185E/D98H/E176V/E277Q/G131W/G231S/I119V/I121R/I166T/I218V/L300P/L318F/N151K/N90K/P208A/P217A/Q86G/Q94H/R138H/R169H/T345S); experiment: iTopia stability; conditions: Table 1
Field: MHC complex stability (T1/2). Provide a value for each of the sequences that follow.
Give bare numbers, in h.

1. FLDLQVNSL [T.986]
7.8
2. VVLGVVFGV [H.665.V9]
40.0
3. ILAKFLHWLV [T.540(10).V10]
16.8
4. FLHWLMSVYV [T.544]
40.0
5. LLDTRTLEV [T.934]
21.6

Return reported MHC complex stability (T1/2) values for all items listed beneath this line.
1. FLVDDFLLV [T.865.F1]
2. RLTVTTITV [C.310.L2]
3. ALCRWGLLV [H.5.V9]
4. KLFGSLAFL
5. YLSGANLNV [C.605.V9]
6. AVVGILLVV [H.657]

Reply text:
13.2
25.4
6.2
40.0
27.4
8.6

MHC complex stability (T1/2) for ALVGIMIGV [C.687.L2] is 26.3

----------
Field: Initial binding, % pos control. Provide a value for each of the sequences that follow.
molecular target: HLA-A2 (A*0201) (Homo sapiens, UniProt P04439, D140Y/D185E/D98H/E176V/E277Q/G131W/G231S/I119V/I121R/I166T/I218V/L300P/L318F/N151K/N90K/P208A/P217A/Q86G/Q94H/R138H/R169H/T345S); experiment: iTopia initial binding assay; settings: Table 1
Record the result as a number with its unit.

Sample records with Initial binding, % pos control:
1. LLDTRTLEV [T.934]
80.2 % pos control
2. ALCRWGLLV [H.5.V9]
72.3 % pos control
3. VVLGVVFGV [H.665.V9]
65.8 % pos control

Return reported Initial binding, % pos control values for all items listed beneath this line.
1. FLDLQVNSL [T.986]
2. KLFGSLAFL

Reply text:
["69.5 % pos control", "79.7 % pos control"]
